System: HDQ-P1
Assay: drug sensitivity score (DSS), CellTox Green (DSS (AUC-based score)); higher = stronger drug effect (viability inhibition or cytotoxicity); extreme values may be limits of the assay
Settings: incubation time: 72 h
metric-name: drug sensitivity score
Answer with a bare number; do not write a unit.

// query Please report drug sensitivity score for the following molecule: CC(=O)[C@]1(O)Cc2c(O)c3c(c(O)c2[C@@H](O[C@H]2C[C@H](N)[C@H](O)[C@H](C)O2)C1)C(=O)c1ccccc1C3=O
// result 0

// query Please report drug sensitivity score for the following molecule: CN[C@@H](C)C(=O)N[C@H]1CN(C(=O)CC(C)C)CC[C@H]2CC[C@@H](C(=O)NC(c3ccccc3)c3ccccc3)N2C1=O
// result 4.26

// query Please report drug sensitivity score for the following molecule: CC[C@H](CO)Nc1nc(NCc2ccccc2)c2ncn(C(C)C)c2n1
// result 0
